Values from a collection of fitness landscapes (doi:10.1016/j.celrep.2020.107928)

B1: Caulobacter ParB omega fusion; a variant is named by its letters at X, in order, B8GW30 (parent)
chain: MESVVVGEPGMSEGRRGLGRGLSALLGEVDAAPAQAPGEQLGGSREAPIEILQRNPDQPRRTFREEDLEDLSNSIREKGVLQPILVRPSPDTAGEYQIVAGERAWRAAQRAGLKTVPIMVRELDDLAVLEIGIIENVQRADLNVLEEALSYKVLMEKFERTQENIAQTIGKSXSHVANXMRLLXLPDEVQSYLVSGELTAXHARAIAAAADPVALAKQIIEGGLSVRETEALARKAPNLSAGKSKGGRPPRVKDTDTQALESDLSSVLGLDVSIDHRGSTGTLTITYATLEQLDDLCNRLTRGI

- Variants of: B1
- procedure_details: one-hybrid fitness for binding parS DNA (scaled: cognate 1, non-cognate 0); higher = stronger binding
- experimental_parameters: with parS DNA site
Over roughly 81,000 sequences, “one-hybrid fitness for binding parS DNA” has its median near -0.17; the highest 2% begin near 0.51. What follows is part of a selection rich in the highest values, with near analogues and random picks from the rest.

{"variant": "LTYE", "one-hybrid fitness for binding parS DNA": "≤ 0.2"}
{"variant": "VNRI", "one-hybrid fitness for binding parS DNA": "≤ 0.2"}
{"variant": "PDSM", "one-hybrid fitness for binding parS DNA": "≤ 0.2"}
{"variant": "FEDR", "one-hybrid fitness for binding parS DNA": "≤ 0.2"}
{"variant": "RRRN", "one-hybrid fitness for binding parS DNA": 0.788}
{"variant": "GRRM", "one-hybrid fitness for binding parS DNA": "≤ 0.2"}
{"variant": "STTT", "one-hybrid fitness for binding parS DNA": "≤ 0.2"}
{"variant": "RCRN", "one-hybrid fitness for binding parS DNA": 0.387}
{"variant": "RSMS", "one-hybrid fitness for binding parS DNA": 0.994}
{"variant": "VYPW", "one-hybrid fitness for binding parS DNA": "≤ 0.2"}
{"variant": "RKMN", "one-hybrid fitness for binding parS DNA": 0.372}
{"variant": "RLNQ", "one-hybrid fitness for binding parS DNA": "≤ 0.2"}
{"variant": "YAIL", "one-hybrid fitness for binding parS DNA": "≤ 0.2"}
{"variant": "RCDK", "one-hybrid fitness for binding parS DNA": "≤ 0.2"}
{"variant": "RRMN", "one-hybrid fitness for binding parS DNA": 0.4}
{"variant": "EAAT", "one-hybrid fitness for binding parS DNA": "≤ 0.2"}
{"variant": "ANGP", "one-hybrid fitness for binding parS DNA": "≤ 0.2"}
{"variant": "IYTS", "one-hybrid fitness for binding parS DNA": "≤ 0.2"}
{"variant": "ANRF", "one-hybrid fitness for binding parS DNA": "≤ 0.2"}
{"variant": "RLRG", "one-hybrid fitness for binding parS DNA": 0.966}
{"variant": "RSMN", "one-hybrid fitness for binding parS DNA": 0.402}
{"variant": "RSMH", "one-hybrid fitness for binding parS DNA": 0.245}
{"variant": "AADE", "one-hybrid fitness for binding parS DNA": "≤ 0.2"}
{"variant": "RLRD", "one-hybrid fitness for binding parS DNA": "≤ 0.2"}
{"variant": "RKMS", "one-hybrid fitness for binding parS DNA": 0.876}
{"variant": "KYAR", "one-hybrid fitness for binding parS DNA": "≤ 0.2"}
{"variant": "RLNY", "one-hybrid fitness for binding parS DNA": 0.495}
{"variant": "KHKS", "one-hybrid fitness for binding parS DNA": "≤ 0.2"}
{"variant": "CQTC", "one-hybrid fitness for binding parS DNA": "≤ 0.2"}
{"variant": "NNWM", "one-hybrid fitness for binding parS DNA": "≤ 0.2"}
{"variant": "RLDD", "one-hybrid fitness for binding parS DNA": "≤ 0.2"}
{"variant": "NSRV", "one-hybrid fitness for binding parS DNA": "≤ 0.2"}
{"variant": "PTPR", "one-hybrid fitness for binding parS DNA": "≤ 0.2"}
{"variant": "QQWL", "one-hybrid fitness for binding parS DNA": "≤ 0.2"}
{"variant": "VHYL", "one-hybrid fitness for binding parS DNA": "≤ 0.2"}
{"variant": "WVYT", "one-hybrid fitness for binding parS DNA": "≤ 0.2"}
{"variant": "RLYG", "one-hybrid fitness for binding parS DNA": 1.03}
{"variant": "RRMP", "one-hybrid fitness for binding parS DNA": "≤ 0.2"}
{"variant": "RLNG", "one-hybrid fitness for binding parS DNA": 1.01}
{"variant": "EYRT", "one-hybrid fitness for binding parS DNA": "≤ 0.2"}
{"variant": "RRMS", "one-hybrid fitness for binding parS DNA": 0.704}
{"variant": "VAFA", "one-hybrid fitness for binding parS DNA": "≤ 0.2"}
{"variant": "PIDR", "one-hybrid fitness for binding parS DNA": "≤ 0.2"}
{"variant": "RHMH", "one-hybrid fitness for binding parS DNA": "≤ 0.2"}
{"variant": "RHMD", "one-hybrid fitness for binding parS DNA": "≤ 0.2"}
{"variant": "RRYN", "one-hybrid fitness for binding parS DNA": 0.557}
